Where do these numbers come from? They come from patent US20260297542A1.

Entries and their inhibition at 0.1 ppm values follow.
Molecular target: AtPPO1 V365L G404A L479N (SEQ ID NO.136) (Arabidopsis thaliana, UniProt P55826, G404A/L479N/V365L)
Construct: made in house; host or cells: E. coli BL21 (DE3) hemG, crude extract
Sequence (P55826 35-537 V365L/G404A/L479N): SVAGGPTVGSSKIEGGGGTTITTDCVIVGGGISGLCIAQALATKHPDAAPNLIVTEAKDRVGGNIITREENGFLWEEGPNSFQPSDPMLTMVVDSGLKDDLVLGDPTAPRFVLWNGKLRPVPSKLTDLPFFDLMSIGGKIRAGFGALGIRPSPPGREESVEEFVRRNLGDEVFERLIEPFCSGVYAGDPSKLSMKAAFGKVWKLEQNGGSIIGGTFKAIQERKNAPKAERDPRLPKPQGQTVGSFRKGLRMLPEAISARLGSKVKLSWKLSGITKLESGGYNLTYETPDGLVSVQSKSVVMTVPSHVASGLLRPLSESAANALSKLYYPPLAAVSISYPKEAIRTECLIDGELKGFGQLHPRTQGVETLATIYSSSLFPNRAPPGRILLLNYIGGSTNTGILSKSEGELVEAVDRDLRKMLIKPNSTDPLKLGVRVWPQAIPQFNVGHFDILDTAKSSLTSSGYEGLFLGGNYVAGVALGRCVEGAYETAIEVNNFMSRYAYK
Assay: fluorescent Protoporphyrinogen Oxidase assay, crude extract
Format: biochemical
Settings: read-out: percentage inhibition
Procedure: A pET24 plasmid containing a DNA sequence encoding each identified variant mutant of AtPPO1 derived from Arabidopsis thaliana, codon-optimised for expression in E. coli, and under control of a T7 promoter, was synthesised by Twist Bioscience. […] Protein concentration was measured and calculated using the absorbance at 280 nm. Extracts were diluted 1 in 4 and 10 uL was analysed by SDS PAGE. […]
Measured attribute: inhibition at 0.1 ppm

Compound: CCOC(=O)[C@]1(C)CC(c2cc(-n3c(=O)n(C)c(=S)n(C)c3=O)c(F)cc2Cl)=NO1 [Herbicide D]
Measured attribute: inhibition at 0.1 ppm
Recorded value: 4%

Compound: CC(C)N(C)S(=O)(=O)NC(=O)c1cc(-n2c(=O)cc(C(F)(F)F)n(C)c2=O)c(F)cc1Cl [Herbicide E, saflufenacil]
Measured attribute: inhibition at 0.1 ppm
Recorded value: 0%

Compound: C#CCN1C(=O)C(F)(F)Oc2cc(F)c(-n3c(=O)n(C)c(=S)n(C)c3=O)cc21 [Herbicide B, trifludimoxazin]
Measured attribute: inhibition at 0.1 ppm
Recorded value: 79%

Compound: CCOC(=O)C1(C)CC(c2cc(-n3c(=O)cc(C(F)(F)F)n(C)c3=O)c(F)cc2Cl)=NO1 (centres unmarked) [Herbicide C]
Measured attribute: inhibition at 0.1 ppm
Recorded value: 34%

Compound: CCOC(=O)COc1ncccc1Oc1cc(-n2c(=O)cc(C(F)(F)F)n(C)c2=O)c(F)cc1Cl [Herbicide A, epyrifenacil]
Measured attribute: inhibition at 0.1 ppm
Recorded value: 58%

* * *

Entries and their inhibition at 0.1 ppm values follow.
Molecular target: AtPPO1 S305L Y361T V365L T431R L479M (SEQ ID NO.130) (Arabidopsis thaliana, UniProt P55826, L479M/S305L/T431R/V365L/Y361T)
Construct: made in house; host or cells: E. coli BL21 (DE3) hemG, crude extract
Sequence (P55826 35-537 S305L/Y361T/V365L/T431R/L479M): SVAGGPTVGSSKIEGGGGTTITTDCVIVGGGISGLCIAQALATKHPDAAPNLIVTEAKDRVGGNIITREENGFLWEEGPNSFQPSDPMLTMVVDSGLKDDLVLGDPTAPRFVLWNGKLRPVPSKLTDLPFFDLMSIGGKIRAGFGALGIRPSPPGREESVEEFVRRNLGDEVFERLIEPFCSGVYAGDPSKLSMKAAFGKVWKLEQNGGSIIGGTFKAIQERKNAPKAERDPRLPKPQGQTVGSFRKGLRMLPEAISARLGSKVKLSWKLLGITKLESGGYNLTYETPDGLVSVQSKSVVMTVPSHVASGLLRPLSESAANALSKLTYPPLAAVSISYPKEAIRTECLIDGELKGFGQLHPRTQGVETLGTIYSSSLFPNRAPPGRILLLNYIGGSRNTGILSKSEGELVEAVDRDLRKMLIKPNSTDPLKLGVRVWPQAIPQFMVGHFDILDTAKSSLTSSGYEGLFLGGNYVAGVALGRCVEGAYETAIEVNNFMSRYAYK
Experiment: fluorescent Protoporphyrinogen Oxidase assay, crude extract
Type: biochemical
Details: read-out: percentage inhibition
Measured attribute: inhibition at 0.1 ppm (%)

Molecule: CC(C)N(C)S(=O)(=O)NC(=O)c1cc(-n2c(=O)cc(C(F)(F)F)n(C)c2=O)c(F)cc1Cl [Herbicide E, saflufenacil]
Measured attribute: inhibition at 0.1 ppm
Recorded value: 9
--
Molecule: C#CCN1C(=O)C(F)(F)Oc2cc(F)c(-n3c(=O)n(C)c(=S)n(C)c3=O)cc21 [Herbicide B, trifludimoxazin]
Measured attribute: inhibition at 0.1 ppm
Recorded value: 41
--
Molecule: CCOC(=O)COc1ncccc1Oc1cc(-n2c(=O)cc(C(F)(F)F)n(C)c2=O)c(F)cc1Cl [Herbicide A, epyrifenacil]
Measured attribute: inhibition at 0.1 ppm
Recorded value: 15
--
Molecule: CCOC(=O)[C@]1(C)CC(c2cc(-n3c(=O)n(C)c(=S)n(C)c3=O)c(F)cc2Cl)=NO1 [Herbicide D]
Measured attribute: inhibition at 0.1 ppm
Recorded value: 12

* * *

Entries and their inhibition at 0.1 ppm values follow.
Molecular target: AtPPO1 S305L V365M (SEQ ID NO.128) (Arabidopsis thaliana, UniProt P55826, S305L/V365M)
Construct: made in house; host or cells: E. coli BL21 (DE3) hemG, crude extract
Sequence (P55826 35-537 S305L/V365M): as the sequence (P55826 35-537 V365L/G404A/L479N) above, with S271L, L331M, A370G, N445L counted along it
Assay: fluorescent Protoporphyrinogen Oxidase assay, crude extract
Format: biochemical
Settings: read-out: percentage inhibition
Measured attribute: inhibition at 0.1 ppm (%)

Compound: CC(C)N(C)S(=O)(=O)NC(=O)c1cc(-n2c(=O)cc(C(F)(F)F)n(C)c2=O)c(F)cc1Cl [Herbicide E, saflufenacil]
Measured attribute: inhibition at 0.1 ppm
Recorded value: 0
--
Compound: CCOC(=O)COc1ncccc1Oc1cc(-n2c(=O)cc(C(F)(F)F)n(C)c2=O)c(F)cc1Cl [Herbicide A, epyrifenacil]
Measured attribute: inhibition at 0.1 ppm
Recorded value: 41
--
Compound: CCOC(=O)C1(C)CC(c2cc(-n3c(=O)cc(C(F)(F)F)n(C)c3=O)c(F)cc2Cl)=NO1 (centres unmarked) [Herbicide C]
Measured attribute: inhibition at 0.1 ppm
Recorded value: 45
--
Compound: C#CCN1C(=O)C(F)(F)Oc2cc(F)c(-n3c(=O)n(C)c(=S)n(C)c3=O)cc21 [Herbicide B, trifludimoxazin]
Measured attribute: inhibition at 0.1 ppm
Recorded value: 100
--
Compound: CCOC(=O)[C@]1(C)CC(c2cc(-n3c(=O)n(C)c(=S)n(C)c3=O)c(F)cc2Cl)=NO1 [Herbicide D]
Measured attribute: inhibition at 0.1 ppm
Recorded value: 51
